B1: CCDC6 (parent)
chain: TLFKKIQALQKEKETLAVNYEKEE

variants of: B1; test: protein stability index of a GFP-peptide fusion (GPS, HEK-293T) (PSI 1-6); higher = more stable; conditions: c terminus: a fixed tail appended;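 further: lentivirally expressed fusions sorted by FACS into six bins by GFP to DsRed ratio, PSI derived from sequencing read proportions per bin multiplied by bin number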
Quick rule: protein stability index of at least 3 means condition met, below that means condition not met.

Here are 4 variants together with their reported answers.
Q7T: condition met
I6E: condition met
Q7F: condition not met
Q7I: condition not met

Quick check, protein stability index >= 3? T15W
condition not met

Okay, and N19M ?
condition not met

Field entry: A17M
condition not met

Now consider E21I .
condition not met

Ok, now E23V
condition not met
